Listing of recorded ELISA signal by entry.
- MEASURED_ON: Influenza Hemagglutinin B (influenza B virus)
- ASSAY_NAME: ELISA on Influenza Hemagglutinin B (1 ug/mL); 293 supernatant diluted 1:10000
# print the numeric value only

In the examples that follow, each entry is paired with its recorded ELISA signal.
BINDER	ELISA signal
F2-24 (VHH) VHH: QVQLVESGGGLVQAGGSLRLSCASSGHTFNSYVMGWFRQAPGKEREFVAAIRPSGVSTYYADSVKGRFTISRDNAKNTVSLEMNSLKPEDTAVYYCAGDRDHSMMAVRRLSSYRQWGRGTQVTVSS	1.45
F2-02 (VHH) VHH: QVQLVESGGGLVQAGGSLRLSCAASGRTFRSFAMGWFRQAPGKEREFVATISWWSNNTYYADSVKGRFTISRDIAKNTVYLQMNSLKPEDTAVYYCAADLGPWLTAGQYDYWGQGTQVTVSS	0.266
F1-04 (VHH) VHH: QVQLVESGGGLVQVGGSLRLSCAASERPSSNYAMGWFRQAPGKEQEFVAAIYWSGGGTAYGDSVKGRFTISKDNAKNTVYLQMNDLKPEDTGMYYCTTDHYGSWSYEYGSWGQGTQVTVSS	0.205

Okay, now this binder:
query: Would you kindly share the measured ELISA signal for F2-20 (VHH) VHH: QVQLVESGGGLVQAGGSLRLSCAASGRTFSRYAMGWFRQAPGKEREFVARISWSGDITYYADSVKGRFTISRDNAKNTVYLQMNSLKPEDTAVYYCAADAILRTRPPYESDYWGQGTQVTVSS ?
result: 0.805
